- assay-comment: in vitro
- stated-conditions: Wistar, rat, microsomes
# note: exactly 30 µL/min/mg is not below, so it is not fulfilled; use fulfilled for microsomal CLint at 1 µM strictly under it

[in] Say whether its microsomal CLint at 1 µM is strictly beneath 30 µL/min/mg. Entry: Clc1cnc2n1CCCc1nnc([C@H]3CC[C@H](Oc4ccccn4)CC3)n1-2
[out] fulfilled

[in] Further, for O[C@H]1Cc2cc(Cl)ccc2-n2c(nnc2[C@H]2CC[C@H](Oc3ccccn3)CC2)C1 ?
[out] fulfilled

[in] Note, next up: Clc1ccc2c(c1)CC1(CCOC1)Cc1nnc([C@H]3CC[C@H](Oc4ccccn4)CC3)n1-2 (stereo partly drawn)
[out] not fulfilled

[in] Same lookup for CN(C)CC(=O)NC1Cc2cc(Cl)ccc2-n2c(nnc2[C@H]2CC[C@H](Oc3ccccn3)CC2)C1 (mixture of isomers) , please.
[out] fulfilled

[in] What do you get for O=C([C@H]1CC[C@H](c2nnc3n2-c2ccc(Cl)cc2CC2(C3)OCCO2)CC1)N1CCOCC1 ?
[out] fulfilled

[in] Follow-up item: FC1(F)CCC(NC2Cc3cc(Cl)ccc3-n3c(nnc3[C@H]3CC[C@H](Oc4ccccn4)CC3)C2)CC1 (stereo partly drawn)
[out] fulfilled

[in] Try this compound too: CN(C)CCC(=O)N[C@@H]1Cc2cc(Cl)ccc2-n2c(nnc2[C@H]2CC[C@H](Oc3ccccn3)CC2)C1
[out] fulfilled

[in] Another compound: CN(C)CC1Cc2cc(Cl)ccc2-n2c(nnc2[C@H]2CC[C@H](Oc3ccccn3)CC2)C1 (stereo partly drawn)
[out] not fulfilled

[in] And then NCC1Cc2cc(Cl)ccc2-n2c(nnc2[C@H]2CC[C@H](Oc3ccccn3)CC2)C1 (stereo partly drawn) , what is it?
[out] fulfilled

[in] One more compound: Clc1ccc2c(c1)CC(NC1CCOCC1)Cc1nnc([C@H]3CC[C@H](Oc4ccccn4)CC3)n1-2 (stereo partly drawn)
[out] fulfilled

[in] For O[C@@H]1Cc2cc(Cl)ccc2-n2c(nnc2[C@H]2CC[C@H](Oc3ccccn3)CC2)C1 then?
[out] not fulfilled

[in] Field entry: O=C(N[C@@H]1Cc2cc(Cl)ccc2-n2c(nnc2[C@H]2CC[C@H](Oc3ccccn3)CC2)C1)C1CCC1
[out] not fulfilled

[in] Record: CC(C)(C)C(=O)N[C@@H]1Cc2cc(Cl)ccc2-n2c(nnc2[C@H]2CC[C@H](Oc3ccccn3)CC2)C1
[out] not fulfilled

[in] Proceed to FC(F)(F)[C@H]1CC[C@H](c2nnc3n2-c2ccc(Cl)cc2CC2(C3)OCCO2)CC1
[out] fulfilled

[in] Repeat for the following compound: CN1CCN(CC2Cc3cc(Cl)ccc3-n3c(nnc3[C@H]3CC[C@H](Oc4ccccn4)CC3)C2)CC1 (stereo partly drawn)
[out] fulfilled

[in] Next: OC1Cc2cc(Cl)ccc2-n2c(nnc2[C@H]2CC[C@H](Oc3ccccn3)CC2)C1 (mixture of isomers)
[out] fulfilled

[in] Do the same for CC(C)NCC1Cc2cc(Cl)ccc2-n2c(nnc2[C@H]2CC[C@H](Oc3ccccn3)CC2)C1 (stereo partly drawn) please
[out] fulfilled

[in] Next entry: Clc1ccc2c(c1)CC(NC1COC1)Cc1nnc([C@H]3CC[C@H](Oc4ccccn4)CC3)n1-2 (stereo partly drawn)
[out] fulfilled

[in] Same read-out for Clc1ccc2c(c1)CC(CNC1CCOCC1)Cc1nnc([C@H]3CC[C@H](Oc4ccccn4)CC3)n1-2 (stereo partly drawn) ?
[out] fulfilled

[in] Field entry: O=C(N[C@@H]1Cc2cc(Cl)ccc2-n2c(nnc2[C@H]2CC[C@H](Oc3ccccn3)CC2)C1)C(F)(F)F
[out] fulfilled

[in] Also need CC(C)(O)C(=O)N[C@@H]1Cc2cc(Cl)ccc2-n2c(nnc2[C@H]2CC[C@H](Oc3ccccn3)CC2)C1 , thanks.
[out] fulfilled

[in] Moving on to the next compound: Clc1ccc2c(c1)CC1(CCCOC1)Cc1nnc([C@H]3CC[C@H](Oc4ccccn4)CC3)n1-2 (stereo partly drawn)
[out] not fulfilled

[in] And what about the compound N[C@H]1Cc2cc(Cl)ccc2-n2c(nnc2[C@H]2CC[C@H](Oc3ccccn3)CC2)C1 ?
[out] not fulfilled

[in] And the next one, CC(=O)N[C@@H]1Cc2cc(Cl)ccc2-n2c(nnc2[C@H]2CC[C@H](Oc3ccccn3)CC2)C1 ?
[out] fulfilled

[in] Follow-up item: O=C(N[C@@H]1Cc2cc(Cl)ccc2-n2c(nnc2[C@H]2CC[C@H](Oc3ccccn3)CC2)C1)C1CC1
[out] fulfilled

[in] // query: CN1Cc2cc(Cl)ccc2-n2c(nnc2[C@H]2CC[C@H](Oc3ccccn3)CC2)C1
[out] fulfilled

[in] Then Clc1ccc2c(c1)CC(CN1CCOCC1)Cc1nnc([C@H]3CC[C@H](Oc4ccccn4)CC3)n1-2 (stereo partly drawn) ?
[out] not fulfilled

[in] Here is the next compound: N#CCC(=O)N[C@@H]1Cc2cc(Cl)ccc2-n2c(nnc2[C@H]2CC[C@H](Oc3ccccn3)CC2)C1
[out] fulfilled

[in] Cool, now Clc1ccc2c(c1)CC1(Cc3nnc([C@H]4CC[C@H](N5CCOCC5)CC4)n3-2)OCCO1
[out] fulfilled

[in] Also Clc1ccc2c(c1)CC1(Cc3nnc([C@H]4CC[C@H](Oc5ccccn5)CC4)n3-2)OCCCO1 ?
[out] fulfilled

[in] How about CO[C@H]1Cc2cc(Cl)ccc2-n2c(nnc2[C@H]2CC[C@H](Oc3ccccn3)CC2)C1 ?
[out] not fulfilled

[in] Lookup CO[C@]1(C)CC[C@@H](c2nnc3n2-c2ccc(Cl)cc2CC2(C3)OCCO2)CC1
[out] fulfilled

[in] Please answer likewise for N[C@@H]1Cc2cc(Cl)ccc2-n2c(nnc2[C@H]2CC[C@H](Oc3ccccn3)CC2)C1
[out] fulfilled
